Tested on: ICR (CD-1) mice
Assay: In vivo toxicity in mice (SC, IN, IP routes)
Settings: SC, 3 doses (1hr, 12hr, 24hr); head doses: RN7-IN10, RN7-IN8 20 mg/kg; RN7-IN9, RN7-IN6 10 mg/kg; day 7; mean±SD, 4 mice
readout-kind: White blood cells, WBC

## Task Recorded White blood cells, WBC for FLGGLIKKWPWWPWRR-NH2 [RN7-IN9, hybrid peptide of ranalexin (residues 1-7) and indolicidin (residues 5-13)] , please?
## Result 4.32±0.55 10^3/mm^3

## Task Recorded White blood cells, WBC for FLGGLIKWPWWPWRR-NH2 [RN7-IN8, hybrid peptide of ranalexin (residues 1-7) and indolicidin (residues 6-13)] , please?
## Result 3.47±0.48 10^3/mm^3

## Task Recorded White blood cells, WBC for FLGGLIKWWPWRR-NH2 [RN7-IN6, hybrid peptide of ranalexin (residues 1-7) and indolicidin (residues 8-13)] , please?
## Result 3.86±0.34 10^3/mm^3

## Task Recorded White blood cells, WBC for FLGGLIKWKWPWWPWRR-NH2 [RN7-IN10, hybrid peptide of ranalexin (residues 1-7) and indolicidin (residues 4-13)] , please?
## Result 3.8±0.2 10^3/mm^3
